Provenance of the data: the DeepSol protein solubility set

experimental protocol: soluble on expression in E. coli; label from the status in PepcDB or PDB records
measured endpoint: soluble on expression in E. coli

Examples with their reported soluble on expression in E. coli follow.
primary sequence	soluble on expression in E. coli
MSLKNLITKLENEERLNQEEANALWDLDLFTLGKYAHKKRTKLHGKKVYFNINRHINPTNICADTCKFCAFSAHRKNPNPYLMTHEEIMKIVDETVKRETKEVHIVSAHNKDTTWQWYLEIFKMIKEKYPNLHVKAMTAAEIDFLHRRFKMSYEEVIEKMLEYGVDSMPGGGAEIFDEEVRKKICHGKVSSENWLKIHKLWHEKSKQSNATMLFGHIEERHHRIDHMLRLRDLQDQTGGFNAFIPLVWQRDKSFIQTDKIMDSEEILKTIAISRLVLDNIKNIKAYWATMTLNLAMVAQEFGANDLDGTIEKESIQSAGGAKSAKGTSLKTFIDMIKTSNLIPVERDSLYNELKTYEGHHHHHH	not soluble
AGGPGSRARAAGARGCRLRSQLVPVRALGLGHRSDELVRFRFCSGSCRRARSPHDLSLASLLGAGALRPPPGSRPVSQPCCRPTRYEAVSFMDVNSTWRTVDRLSATACGCLG	soluble
MSTDKITFLLNWQPTPYHIPIFLAQTKGYFKEQGLDMAILEPTNPSDVTELIGSGKVDMGLKAMIHTLAAKARGFPVTSVASLLDEPFTGVLYLKGSGITEDFQSLKGKKIGYVGEFGKIQIDELTKHYGMKPEDYTAVRCGMNVAKYIIEGKIDAGIGIECMQQVELEEYLAKQGRPASDAKMLRIDKLACLGCCCFCTVLYICNDEFLKKNPEKVRKFLKAIKKATDYVLADPVKAWKEYIDFKPQLNNDLSYKQYQRCYAYFSSSLYNVHRDWKKVTGYGKRLAILPPDYVSNYTNEYLSWPEPEEVSDPLEAQRLMAIHQEKCRQEGTFKRLALPA	soluble
MGSDKIHHHHHHMDLTQLRMFCLVAETGSVARAAEQLHRVPSNLTTRLRQLELELGTDLFIREKQRLRLSPIGHNFLCYAQRILALSEEAISMTRTGEPAGNFALGSMESTAATRLPTLLAAYHQRYPNVSLSLNTGTSGEIIERVRAGTLAAALVDGPVVYDELNGCSCFAEQLVLISDPSHSPITHARDASNDTLFAFRPSCSYRKRLENWFRQDGVVPGTIMEIHSYHAMLACVASGSGLAMLPYAVLESLPAGARVQVHELPPDIAAASTWLVWRRDAFGPNVEALKKLIIEQSAQSE	not soluble
MAGDPMLKQLKKVIITTAIALATLCSTQAFAETNPYLLMQKTADKLFTNIKNNQTKIKANPEYLRDIVREDLMSYVHIRYAGQLVLGKSLSSVSEPQREKFFNAFGKFIEQAYAQILTQYEDQQIQIENEKPLGDKSIVSIRVNVLSSGSTPPIKLDFKWRKNSKTGEWQAYDMAAEGVSMVATKQNEWSNILRQQGIDALTNQVEKAAKQPITLNKLEHHHHHH	soluble
MVNLDAEIYEHLNKQIKINELRYLSSGDDSDTFLCNEQYVVKVPKRDSVRISQKREFELYRFLENCKLSYQIPAVVYQSDRFNIMKYIKGERITYEQYHKLSEKEKDALAYDEATFLKELHSIEIDCSVSLFSDALVNKKDKFLQDKKLLISILEKEQLLTDEMLEHIETIYENILNNAVLFKYTPCLVHNDFSANNMIFRNNRLFGVIDFGDFNVGDPDNDFLCLLDCSTDDFGKEFGRKVLKYYQHKAPEVAERKAELNDVYWSIDQIIYGYERKDREMLIKGVSELLQTQAEMFIF	soluble
MIDSANRADVFLRKPAPVAPELQHEVEQFYYWEAKLLNDRRFEEWFALLAEDIHYFMPIRTTRIMRDSRLEYSGSREYAHFDDDATMMKGRLRKITSDVSWSENPASRTRHLVSNVMIVGAEAEGEYEISSAFIVYRNRLERQLDIFAGERRDTLRRNTSEAGFEIVNRTILIDQSTILANNLSFFF	soluble
MDNIQQEKLKNLIRSLEKSASPQEAEYLMGEILVPLLAEDGYSIQAVGDQRDFGVDFIARKDKHEEQFPEEIAIEYKHYRKAAVGLDVVHRVLGAAMSMGLSRAMVITNSRFTYAAREAIRRSSPVGVELLDIDALRSWIGRIEEVPSIDVVQVNIIRREFSRRLIELILKNPRYLDEIEWREMERLLAEVFEGLGFSVRLTPGSKDGGKDIILTCQVATKNHTYYVEVKHWRSGQRVGSGAITEFLNVIINEQIDGGLYLSTYGYCSNSIESLTEIQRKSLRFGTENKVVTLCQSYVKAMSGIWAPDKLLPEVLYDNTL	not soluble
MLGENHALIYEFPDFADHIRHLKKNNTIFATMAQRYHELDHKIRALELTKVPTDDEHFVALKLERLHLKDKLYQYLVHDAI	soluble
MGTRDDEYDYLFKVVLIGDSGVGKSNLLSRFTRNEFNLESKSTIGVEFATRSIQVDGKTIKAQIWDTAGQERYRAITSAYYRGAVGALLVYDIAKHLTYENVERWLKELRDHADSNIVIMLVGNKSDLRHLRAVPTDEARAFAEKNGLSFIETSALDSTNVEAAFQTILTEIYRIVSQKQMSDRRENDMSPSNNVVPIHVPPTTENKPKVQCCQNI	soluble

Return soluble on expression in E. coli (reported value) for this sequence: MSLELLSKLETKIQATLETIELLKMELEEEKQKTSTLSEQNNQLIEQNQQLQQELTSWNEKVTGLVGLLNSEI
soluble

Supply soluble on expression in E. coli value. Item: MSIESLNAFSMDFFSLKGKTAIVTGGNSGLGQAFAMALAKAGANIFIPSFVKDNGETKEMIEKQGVEVDFMQVGITAEGAPQKIIAACERFGTVDILVNNAGICKLNKVLDFGRADWDPMIDVNLTAAFELSYEAAKIMIPQKSGKIINICSLFSYLGGQWSPAYSATKHALAGFTKAYCDELGQYNIQVNGIAPGYYATDITLATRSNPETNQRVLDHIPANRWGDTQDLMGAAVFLASPASNYVNGHLLVVDGGYLVR
soluble
